Each recorded value in this set is attributed to patent US20250304567A1.

Target: Recombinant Human NF-kappaB-Inducing Kinase (NIK/MAP3K14) (Homo sapiens, UniProt Q99558)
Sequence (Q99558 whole entry): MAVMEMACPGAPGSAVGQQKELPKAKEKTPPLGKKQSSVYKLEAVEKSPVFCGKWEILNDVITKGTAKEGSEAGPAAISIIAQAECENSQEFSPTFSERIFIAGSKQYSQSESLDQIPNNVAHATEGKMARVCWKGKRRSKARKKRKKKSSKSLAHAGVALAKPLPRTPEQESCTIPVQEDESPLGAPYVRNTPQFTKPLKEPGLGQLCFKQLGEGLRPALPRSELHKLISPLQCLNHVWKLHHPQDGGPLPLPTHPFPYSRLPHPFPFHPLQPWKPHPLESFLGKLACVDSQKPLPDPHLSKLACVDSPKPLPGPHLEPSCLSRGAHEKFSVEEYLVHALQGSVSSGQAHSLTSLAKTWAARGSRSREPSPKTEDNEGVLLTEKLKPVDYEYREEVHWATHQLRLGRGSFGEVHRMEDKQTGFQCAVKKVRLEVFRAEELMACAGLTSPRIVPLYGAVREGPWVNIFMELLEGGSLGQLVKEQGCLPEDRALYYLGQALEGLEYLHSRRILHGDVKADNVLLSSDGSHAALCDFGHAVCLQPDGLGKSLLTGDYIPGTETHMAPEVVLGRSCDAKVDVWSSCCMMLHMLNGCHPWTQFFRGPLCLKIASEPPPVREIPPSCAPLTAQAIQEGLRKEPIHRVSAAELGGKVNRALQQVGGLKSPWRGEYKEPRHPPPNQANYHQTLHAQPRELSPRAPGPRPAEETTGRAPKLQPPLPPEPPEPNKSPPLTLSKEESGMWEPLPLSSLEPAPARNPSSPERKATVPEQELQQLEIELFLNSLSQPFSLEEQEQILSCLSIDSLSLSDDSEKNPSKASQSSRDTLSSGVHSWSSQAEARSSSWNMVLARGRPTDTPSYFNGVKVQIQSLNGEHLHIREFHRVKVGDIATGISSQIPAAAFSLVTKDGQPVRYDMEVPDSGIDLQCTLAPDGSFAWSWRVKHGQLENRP
Assay: Inhibition of auto-phosphorylation of recombinant human NIK/MAP3K14 activity (AlphaScreen)
Conditions: 5 μM ATP, 1 nM NIK, average if tested more than once
Method: Assay 1: Inhibition of Auto-Phosphorylation of Recombinant Human NF-kappaB-Inducing Kinase (NIK/MAP3K14) Activity (AlphaScreen™) NIK/MAP3K14 auto-phosphorylation activity was measured using the AlphaScreen™ (αscreen) format (Perkin Elmer). […] Protein A Acceptor and Glutathione-Donor beads were added before reading using an EnVision Multilabel Plate Reader (Perkin Elmer). […] IC50's were determined by fitting a sigmoidal curve to % inhibition of control versus Log10 compound concentration.
Please provide measured IC50 for the entries that follow.

Consider the reported IC50 for these molecules:
molecule="CCn1cc(Nc2nccc(-c3csc(-c4cccc([C@]5(O)CCN(C)C5=O)c4)n3)n2)c(C)n1 [Example 270]" test_value="< 100 nM"
molecule="Cc1cc(Nc2nccc(-c3csc(-c4cccc([C@]5(O)CCN(C)C5=O)c4)n3)n2)c(=O)n(C)c1 [Example 14]" test_value="< 100 nM"
molecule="CN1CC[C@@](O)(c2cccc(-c3nc(-c4ccnc(NCCCOCC(F)(F)F)n4)cs3)c2)C1=O [Example 238]" test_value="100 to 500 nM"

Would you mind giving IC50 for every molecule in the list below?
1. CN1CC[C@@](O)(c2cccc(-c3nc(-c4ccnc(Nc5cccnc5OC(F)F)n4)cs3)c2)C1=O [Example 282]
2. CN1CC[C@@](O)(c2cccc(-c3nc(-c4ccnc(Nc5cn(C)nc5OC5CCCC5)n4)cs3)c2)C1=O [Example 95]
3. CN1CC[C@@](O)(c2cccc(-c3nc(-c4ccnc(Nc5nc(C(F)(F)F)cs5)n4)cs3)c2)C1=O [Example 248]
4. COc1c(Nc2nccc(-c3csc(-c4cccc([C@]5(O)CCN(C)C5=O)c4)n3)n2)ccnc1C [Example 74]

1: < 100 nM; 2: < 100 nM; 3: < 100 nM; 4: 100 to 500 nM
